# protocol_summary: Cytotoxicity against human melanoma cells after 48 hrs
# Format: functional
# measurement_parameters: Melanoma cell
Readings of GI50 for the listed compounds
Express it in µM; write the number only.

Example entries and their recorded answers appear below.
• COc1ccc(CN2C(=O)/C(=C\c3cc(OC)c(OC)c(OC)c3)c3ccccc32)cc1 = 1.7
• COc1ccc(CN2C(=O)/C(=C/c3cc(OC)c(OC)c(OC)c3)c3cc(OC)ccc32)cc1 = 2.1

**Query** Request the reported GI50 associated with "COc1cc(/C=C2\C(=O)Nc3ccc(Br)cc32)cc(OC)c1OC"
**Result** 10.2

**Query** GI50 for "COc1cc(/C=C2\C(=O)N(Cc3ccc(Cl)cc3)c3ccccc32)cc(OC)c1OC" ?
**Result** 2.9

**Query** Report GI50 for "COc1cc(/C=C2\C(=O)Nc3cc(Cl)ccc32)cc(OC)c1OC" please.
**Result** 1.9

**Query** Given "COc1cc(/C=C2/C(=O)Nc3cc(C)c(O)cc32)cc(OC)c1OC" , state its recorded GI50.
**Result** 3.6

* * *

# protocol_summary: Inhibition of bovine brain tubulin assembly after 20 mins
Consider the following compounds and their measured IC50 readings.

* COc1cc(/C=C2\C(=O)N(Cc3ccc(Cl)cc3)c3ccccc32)cc(OC)c1OC | > 20 µM
* COc1cc(/C=C2\C(=O)Nc3ccc(Br)cc32)cc(OC)c1OC | > 20 µM
* COc1ccc2c(c1)/C(=C\c1cc(OC)c(OC)c(OC)c1)C(=O)N2 | 6.1 µM

Would you kindly look at the next entry?
**Query** Given the compound "COc1ccc(CN2C(=O)/C(=C\c3cc(OC)c(OC)c(OC)c3)c3ccccc32)cc1" , what is its reported IC50?
**Result** > 20 µM

All values here come from ChEMBL document CHEMBL2385029.
